Target: A3 adenosine receptor (Homo sapiens)
Construct: expressed in transfected cells; host or cells: CHO cells (ATCC No. CCL-61)
Sequence (P0DMS8 1-318): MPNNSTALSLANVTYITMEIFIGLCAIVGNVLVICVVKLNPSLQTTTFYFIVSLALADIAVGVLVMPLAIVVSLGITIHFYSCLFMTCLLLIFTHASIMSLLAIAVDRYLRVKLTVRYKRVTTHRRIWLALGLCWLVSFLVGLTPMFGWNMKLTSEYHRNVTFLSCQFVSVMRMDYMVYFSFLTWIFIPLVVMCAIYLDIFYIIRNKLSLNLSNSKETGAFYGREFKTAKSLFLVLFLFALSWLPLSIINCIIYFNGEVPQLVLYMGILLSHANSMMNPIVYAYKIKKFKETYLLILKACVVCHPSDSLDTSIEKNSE
Experiment: Radioligand binding affinity, A3 adenosine receptor ([125I]AB-MECA, CHO cells)
Settings: nM ± SEM; read-out: Ki(nM) hA3
Value type: Ki (nM)

{"Mol smiles": "O[C@@H]1[C@H](O)CS[C@H]1n1cnc2c(NCc3cccc(F)c3)nc(Cl)nc21", "Ki [nM]": 7.4}

[1] O[C@@H]1[C@H](O)CS[C@H]1n1cnc2c(NCc3cccc(Br)c3)nc(Cl)nc21
[2] COc1ccccc1CNc1nc(Cl)nc2c1ncn2[C@@H]1SC[C@@H](O)[C@H]1O
Inquiry: Input pair: 1 , 2 . Output: entry with lower Ki. Answer with the label corresponding to your selection.
Reply text: 1
(1: 8.99 nM, 2: 19.9 nM)

Measured values drawn from patent EP4186514A1 for this set.
